Entries and their pKd
# ASSAY_TARGET: T1, human PKC-iota kinase domain, primed active form (PKCιKD-2P) (human, UniProt P41743 248-596, phosphothreonine at 412 and 564 (pT412, pT564))
# T1 construct: human PKC-iota (PKCι) kinase domain, residues 248-596 of GenBank NM_002740.5; Details of the construct are in the Supplemental Experimental Procedures and in Kjaer et al., 2013; also called primed PKCι kinase domain; PKCι-2P; source: Hi5 cells, baculovirus, co-infection with a PDK-1 virus
# T1 sequence (looked up): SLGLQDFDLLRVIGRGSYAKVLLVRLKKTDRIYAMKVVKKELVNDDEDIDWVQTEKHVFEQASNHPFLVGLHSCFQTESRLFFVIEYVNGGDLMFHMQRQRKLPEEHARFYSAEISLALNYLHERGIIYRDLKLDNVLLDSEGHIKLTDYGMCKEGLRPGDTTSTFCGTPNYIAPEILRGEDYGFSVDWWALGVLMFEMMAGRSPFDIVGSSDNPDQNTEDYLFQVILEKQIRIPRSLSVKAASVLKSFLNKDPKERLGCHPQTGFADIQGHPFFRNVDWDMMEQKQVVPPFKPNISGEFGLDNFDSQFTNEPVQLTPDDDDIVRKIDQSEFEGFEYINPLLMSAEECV
# TEST_SUMMARY: fluorescence polarisation; fluorescence anisotropy of fluorescein-labelled peptide with PKCι kinase domain; Safire2 plate reader; anisotropy normalised, KD by non-linear regression; triplicate, at least three independent protein preparations
# EXPERIMENTAL_PARAMETERS: both partners purified
No end group written: not given here.
Lab note: report pKd as minus log10 of the concentration in molar units, number only.

>>> measured_number("LAFQREGFGRQAMSEKRTK (peptide, UniProt Q8TEW0 816-834, looked up, also: fluorescein label (position not given here), source: synthetic peptide) [Par3CR3 S827A mutant peptide]")
6.01

Now consider a different binder.
Task: Could you tell me which pKd is on file for LAFQREGFGRQSMSEKRTK (peptide, UniProt Q8TEW0 816-834, looked up, also: fluorescein label (position not given here), also called wild-type Par3CR3; source: synthetic peptide) [human Par3 conserved region 3 peptide, residues 816-834 (Par3CR3)] ?
Result: 6.33

Values compiled from paper PMC4998004.
